Recorded pIC50 by entry
# tested on: Acetylcholinesterase from electric eel (Electrophorus electricus)
# Sequence (O42275 24-633): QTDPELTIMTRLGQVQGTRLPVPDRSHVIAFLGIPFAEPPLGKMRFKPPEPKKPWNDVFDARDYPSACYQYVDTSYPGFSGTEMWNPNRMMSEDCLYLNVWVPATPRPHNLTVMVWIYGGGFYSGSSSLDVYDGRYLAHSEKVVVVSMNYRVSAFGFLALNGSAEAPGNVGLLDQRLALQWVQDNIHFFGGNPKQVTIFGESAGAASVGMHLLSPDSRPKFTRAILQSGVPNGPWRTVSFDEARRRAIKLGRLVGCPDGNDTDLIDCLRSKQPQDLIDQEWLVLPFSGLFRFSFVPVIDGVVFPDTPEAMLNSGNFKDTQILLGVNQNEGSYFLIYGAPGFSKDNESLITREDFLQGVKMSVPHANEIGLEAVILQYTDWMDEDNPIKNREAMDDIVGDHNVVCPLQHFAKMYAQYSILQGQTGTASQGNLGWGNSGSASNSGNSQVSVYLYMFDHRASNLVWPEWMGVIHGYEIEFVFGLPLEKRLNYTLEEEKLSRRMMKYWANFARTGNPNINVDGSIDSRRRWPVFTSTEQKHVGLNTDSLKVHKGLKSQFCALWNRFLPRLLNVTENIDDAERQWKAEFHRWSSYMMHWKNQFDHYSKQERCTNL
pIC50: −log10 of the molar value.
property measured: pIC50

{"compound": "NCc1cc(=O)oc2cc(OCc3cccc(Cl)c3)ccc12 [compound 18]", "property measured": "pIC50", "observed": 4.77}
{"compound": "CNCc1cc(=O)oc2cc(OCc3cccc(Cl)c3)c(Cl)cc12 [compound 12]", "property measured": "pIC50", "observed": 5.10}
{"compound": "NC(=O)CNCc1cc(=O)oc2cc(OCc3cccc(Cl)c3)ccc12 [compound 24]", "property measured": "pIC50", "observed": 5.66}
{"compound": "CN(C)Cc1cc(=O)oc2cc(OCc3cccc(Cl)c3)ccc12 [compound 19]", "property measured": "pIC50", "observed": 5.08}
{"compound": "CNCc1cc(=O)oc2cc(OCc3cc(OC)cc(OC)c3)ccc12 [compound 5]", "property measured": "pIC50", "observed": 4.96}
{"compound": "O=c1cc(CNCc2ccccc2)c2ccc(OCc3cccc(Cl)c3)cc2o1 [compound 13]", "property measured": "pIC50", "observed": 4.77}
{"compound": "O=c1cc(CN2CCCC2)c2ccc(OCc3cccc(Cl)c3)cc2o1 [compound 15]", "property measured": "pIC50", "observed": 5.18}
{"compound": "CCCNCc1cc(=O)oc2cc(OCc3cccc(Cl)c3)ccc12 [compound 20]", "property measured": "pIC50", "observed": 5.31}
{"compound": "CNCc1cc(=O)oc2cc(OCc3cccc(N(C)C)c3)ccc12 [compound 4]", "property measured": "pIC50", "observed": 5.22}
{"compound": "C#CCN(C)Cc1cc(=O)oc2cc(OCc3cccc(Cl)c3)ccc12 [compound 23]", "property measured": "pIC50", "observed": 5.25}
{"compound": "CNCc1cc(=O)oc2cc(OCc3cccc(Br)c3)ccc12 [compound 8]", "property measured": "pIC50", "observed": 5.70}
{"compound": "CNCc1cc(=O)oc2cc(OCc3cccc(Cl)c3)ccc12 [compound 3]", "property measured": "pIC50", "observed": 5.21}
{"compound": "CNC(=O)CNCc1cc(=O)oc2cc(OCc3cccc(Cl)c3)ccc12 [compound 25]", "property measured": "pIC50", "observed": 5.28}
{"compound": "COc1cc(COc2ccc3c(CNCC(N)=O)cc(=O)oc3c2)cc(OC)c1 [compound 27]", "property measured": "pIC50", "observed": 5.36}
{"compound": "C#CCNCc1cc(=O)oc2cc(OCc3cccc(Cl)c3)ccc12 [compound 22]", "property measured": "pIC50", "observed": 5.68}
{"compound": "CNCc1cc(=O)oc2c(C)c(OCc3cccc(Cl)c3)ccc12 [compound 10]", "property measured": "pIC50", "observed": 5.14}
{"compound": "CN(Cc1ccccc1)Cc1cc(=O)oc2cc(OCc3cccc(Cl)c3)ccc12 [compound 14]", "property measured": "pIC50", "observed": 4.80}
{"compound": "CN(C)C(=O)CNCc1cc(=O)oc2cc(OCc3cccc(Cl)c3)ccc12 [compound 26]", "property measured": "pIC50", "observed": 5.37}
{"compound": "CNCc1cc(=O)oc2cc(OCc3ccc4c(c3)OCO4)ccc12 [compound 6]", "property measured": "pIC50", "observed": 5.07}

----------
# tested on: human recombinant MAO B (Homo sapiens)
# Construct: purchased Sigma Aldrich, Milan, Italy
# Sequence (P27338 whole entry): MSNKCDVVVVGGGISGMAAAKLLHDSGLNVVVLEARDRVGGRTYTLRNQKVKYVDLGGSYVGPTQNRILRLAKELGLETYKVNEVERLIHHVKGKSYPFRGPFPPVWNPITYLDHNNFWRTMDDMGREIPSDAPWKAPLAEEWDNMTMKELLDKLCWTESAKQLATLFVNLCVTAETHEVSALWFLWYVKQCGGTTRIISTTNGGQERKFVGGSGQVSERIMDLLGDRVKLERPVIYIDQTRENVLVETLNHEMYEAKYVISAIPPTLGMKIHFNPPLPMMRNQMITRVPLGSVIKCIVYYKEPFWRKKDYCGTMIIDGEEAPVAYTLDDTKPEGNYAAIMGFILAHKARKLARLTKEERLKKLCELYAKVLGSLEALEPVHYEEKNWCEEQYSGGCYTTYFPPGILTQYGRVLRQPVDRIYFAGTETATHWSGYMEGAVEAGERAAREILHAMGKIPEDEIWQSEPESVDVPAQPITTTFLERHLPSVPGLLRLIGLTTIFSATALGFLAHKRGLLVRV
# method summary: Human recombinant MAO B inhibition (kynuramine fluorescence)
# Type: biochemical
# applied conditions: human recombinant MAO; mean ±SEM of three independent experiments; read-out: MAO B IC50
pIC50: −log10 of the molar value.
Rule: pIC50 under 7 gives F, otherwise T.

{"structure smiles": "CN(C)Cc1cc(=O)oc2cc(OCc3cccc(Cl)c3)ccc12", "group": "F"}
{"structure smiles": "CNCc1cc(=O)oc2cc(OCc3cccc(Br)c3)ccc12", "group": "T"}
{"structure smiles": "CNCc1cc(=O)oc2c(C)c(OCc3cccc(Cl)c3)ccc12", "group": "F"}
{"structure smiles": "CNCc1cc(=O)oc2cc(OCc3ccc4c(c3)OCO4)ccc12", "group": "T"}
{"structure smiles": "COc1cc(COc2ccc3c(CNCC(N)=O)cc(=O)oc3c2)cc(OC)c1", "group": "T"}
{"structure smiles": "CNCc1cc(=O)oc2cc(OCc3cccc(N(C)C)c3)ccc12", "group": "F"}
{"structure smiles": "C#CCNCc1cc(=O)oc2cc(OCc3cccc(Cl)c3)ccc12", "group": "T"}
{"structure smiles": "CNCc1cc(=O)oc2cc(OCc3ccccc3)ccc12", "group": "T"}
{"structure smiles": "CCCNCc1cc(=O)oc2cc(OCc3cccc(Cl)c3)ccc12", "group": "T"}
{"structure smiles": "O=c1cc(CN2CCOCC2)c2ccc(OCc3cccc(Cl)c3)cc2o1", "group": "F"}
{"structure smiles": "CN(Cc1ccccc1)Cc1cc(=O)oc2cc(OCc3cccc(Cl)c3)ccc12", "group": "F"}
{"structure smiles": "CNCc1cc(=O)oc2cc(OCc3cccc(Cl)c3)c(Cl)cc12", "group": "F"}
{"structure smiles": "CN(C)C(=O)CNCc1cc(=O)oc2cc(OCc3cccc(Cl)c3)ccc12", "group": "T"}
{"structure smiles": "CNCc1cc(=O)oc2cc(OCc3cccc(F)c3)ccc12", "group": "T"}
{"structure smiles": "CNC(=O)CNCc1cc(=O)oc2cc(OCc3cccc(Cl)c3)ccc12", "group": "T"}

----------
# tested on: butyrylcholinesterase from equine serum (Equus caballus, UniProt P81908)
# Construct: butyrylcholinesterase from equine serum; purchased Sigma Aldrich, Milan, Italy; host or cells: equine serum
# Sequence (P81908 whole entry): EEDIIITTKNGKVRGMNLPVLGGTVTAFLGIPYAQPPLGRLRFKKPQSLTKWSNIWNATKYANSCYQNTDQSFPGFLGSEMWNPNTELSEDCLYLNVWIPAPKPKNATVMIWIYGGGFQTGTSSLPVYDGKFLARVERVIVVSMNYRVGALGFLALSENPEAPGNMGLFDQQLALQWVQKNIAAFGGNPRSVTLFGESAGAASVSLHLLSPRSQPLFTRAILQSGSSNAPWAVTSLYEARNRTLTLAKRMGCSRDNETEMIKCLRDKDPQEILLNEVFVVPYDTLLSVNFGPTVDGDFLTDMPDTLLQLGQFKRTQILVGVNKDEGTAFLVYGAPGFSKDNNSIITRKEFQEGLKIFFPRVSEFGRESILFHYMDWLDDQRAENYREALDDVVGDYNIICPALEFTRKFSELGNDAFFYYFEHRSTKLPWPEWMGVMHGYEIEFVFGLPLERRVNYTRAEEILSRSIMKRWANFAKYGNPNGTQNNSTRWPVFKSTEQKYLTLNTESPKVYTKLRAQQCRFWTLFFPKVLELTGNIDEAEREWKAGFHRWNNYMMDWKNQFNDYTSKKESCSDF
# method summary: biochemical
# Format: biochemical
# applied conditions: read-out: BChE % inhibition at 10 μM

{"molecule": "CNCc1cc(=O)oc2cc(OCc3cc(OC)cc(OC)c3)ccc12 [compound 5]", "unit abbrev": "%", "inhibition at 10 µM": 20}
{"molecule": "O=c1cc(CN2CCCC2)c2ccc(OCc3cccc(Cl)c3)cc2o1 [compound 15]", "unit abbrev": "%", "inhibition at 10 µM": 14}
{"molecule": "CNCc1cc(=O)oc2cc(OCc3cccc(N(C)C)c3)ccc12 [compound 4]", "unit abbrev": "%", "inhibition at 10 µM": 34}
{"molecule": "C#CCNCc1cc(=O)oc2cc(OCc3cccc(Cl)c3)ccc12 [compound 22]", "unit abbrev": "%", "inhibition at 10 µM": 33}
{"molecule": "CNCc1cc(=O)oc2cc(OCc3cccc(Cl)c3)c(Cl)cc12 [compound 12]", "unit abbrev": "%", "inhibition at 10 µM": 27}
{"molecule": "NCc1cc(=O)oc2cc(OCc3cccc(Cl)c3)ccc12 [compound 18]", "unit abbrev": "%", "inhibition at 10 µM": 20}
{"molecule": "COc1cc(COc2ccc3c(CNCC(N)=O)cc(=O)oc3c2)cc(OC)c1 [compound 27]", "unit abbrev": "%", "inhibition at 10 µM": 41}
{"molecule": "CN(C)C(=O)CNCc1cc(=O)oc2cc(OCc3cccc(Cl)c3)ccc12 [compound 26]", "unit abbrev": "%", "inhibition at 10 µM": 34}
{"molecule": "C#CCN(C)Cc1cc(=O)oc2cc(OCc3cccc(Cl)c3)ccc12 [compound 23]", "unit abbrev": "%", "inhibition at 10 µM": 28}

----------
# tested on: eeAChE (Electrophorus electricus, UniProt O42275)
# Construct: purchased Sigma Aldrich, Milan, Italy
# Sequence (O42275 24-633): as the sequence (O42275 24-633) above
# method summary: Inhibition kinetics of eeAChE (Lineweaver-Burk)
# Assay type: biochemical
# applied conditions: eeAChE; inhibitor 0 to 5 μM, acetylthiocholine 33 to 200 μM
Measured Ki, listed per entry.

{"structure smiles": "NC(=O)CNCc1cc(=O)oc2cc(OCc3cccc(Cl)c3)ccc12", "Ki": "3.63 µM"}
{"structure smiles": "CNCc1cc(=O)oc2cc(OCc3cccc(Br)c3)ccc12", "Ki": "2.91 µM"}

----------
inhibition at 10 µM by entry:
# tested on: human recombinant MAO A (Homo sapiens)
# Construct: purchased Sigma Aldrich, Milan, Italy
# Sequence (P21397 whole entry): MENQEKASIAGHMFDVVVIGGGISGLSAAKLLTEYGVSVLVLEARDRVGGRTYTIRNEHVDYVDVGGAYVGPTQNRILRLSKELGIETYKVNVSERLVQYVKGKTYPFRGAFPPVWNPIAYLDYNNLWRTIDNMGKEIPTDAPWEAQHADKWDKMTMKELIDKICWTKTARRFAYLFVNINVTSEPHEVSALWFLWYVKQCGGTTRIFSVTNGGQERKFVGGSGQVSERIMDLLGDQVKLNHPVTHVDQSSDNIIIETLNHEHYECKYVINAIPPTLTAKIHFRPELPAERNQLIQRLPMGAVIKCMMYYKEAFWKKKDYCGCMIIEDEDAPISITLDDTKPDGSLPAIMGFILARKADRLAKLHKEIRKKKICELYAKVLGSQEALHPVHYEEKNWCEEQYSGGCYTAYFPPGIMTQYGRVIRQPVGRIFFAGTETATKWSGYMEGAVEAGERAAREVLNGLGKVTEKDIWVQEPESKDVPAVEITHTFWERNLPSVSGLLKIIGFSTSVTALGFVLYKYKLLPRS
# method summary: biochemical
# applied conditions: read-out: MAO A % inhibition at 10 μM; human recombinant MAO; 10 μM; mean ±SEM of three

{"structure smiles": "CN(Cc1ccccc1)Cc1cc(=O)oc2cc(OCc3cccc(Cl)c3)ccc12", "tested on": "human recombinant MAO A (Homo sapiens)", "unit abbrev": "%", "inhibition at 10 µM": 28}
{"structure smiles": "O=c1cc(CNCc2ccccc2)c2ccc(OCc3cccc(Cl)c3)cc2o1", "tested on": "human recombinant MAO A (Homo sapiens)", "unit abbrev": "%", "inhibition at 10 µM": 24}
{"structure smiles": "NCc1cc(=O)oc2cc(OCc3cccc(Cl)c3)ccc12", "tested on": "human recombinant MAO A (Homo sapiens)", "unit abbrev": "%", "inhibition at 10 µM": 46}
{"structure smiles": "CNCc1cc(=O)oc2cc(OCc3cccc(Cl)c3)c(Cl)cc12", "tested on": "human recombinant MAO A (Homo sapiens)", "unit abbrev": "%", "inhibition at 10 µM": 48}
{"structure smiles": "O=c1cc(CN2CCOCC2)c2ccc(OCc3cccc(Cl)c3)cc2o1", "tested on": "human recombinant MAO A (Homo sapiens)", "unit abbrev": "%", "inhibition at 10 µM": 32}
{"structure smiles": "CN1CCN(Cc2cc(=O)oc3cc(OCc4cccc(Cl)c4)ccc23)CC1", "tested on": "human recombinant MAO A (Homo sapiens)", "unit abbrev": "%", "inhibition at 10 µM": 32}
{"structure smiles": "CCCCNCc1cc(=O)oc2cc(OCc3cccc(Cl)c3)ccc12", "tested on": "human recombinant MAO A (Homo sapiens)", "unit abbrev": "%", "inhibition at 10 µM": 41}
{"structure smiles": "CCCNCc1cc(=O)oc2cc(OCc3cccc(Cl)c3)ccc12", "tested on": "human recombinant MAO A (Homo sapiens)", "unit abbrev": "%", "inhibition at 10 µM": 48}
{"structure smiles": "CNCc1cc(=O)oc2cc(OCc3cccc(N(C)C)c3)ccc12", "tested on": "human recombinant MAO A (Homo sapiens)", "unit abbrev": "%", "inhibition at 10 µM": 49}
